biological target: GPR40 (Homo sapiens, UniProt O14842); assay: Cell-based aequorin assay (CHO cells stably expressing GPR40 and aequorin); design: expressed in transfected cells; host or cells: CHO cells stably transfected with GPR40 and aequorin; conditions: activation of human GPR40, CHO cells, 0.01% HSA
Sequence (O14842 whole entry): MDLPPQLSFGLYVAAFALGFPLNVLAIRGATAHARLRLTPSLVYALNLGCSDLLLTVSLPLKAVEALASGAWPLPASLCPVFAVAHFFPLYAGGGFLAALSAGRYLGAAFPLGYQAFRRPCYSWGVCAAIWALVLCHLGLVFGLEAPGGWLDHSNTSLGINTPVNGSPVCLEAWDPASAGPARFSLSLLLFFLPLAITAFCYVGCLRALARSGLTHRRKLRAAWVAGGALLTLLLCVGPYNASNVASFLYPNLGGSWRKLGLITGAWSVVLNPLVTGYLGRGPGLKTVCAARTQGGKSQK
# EC50 annotations

Solved cases (5 shown):
Compound	EC50
COc1ccc(F)c(-c2ccc(COc3cccc([C@@H](CC(=O)O)C4CC4)c3)cc2[C@H]2CCC[C@@H]2C)c1 (single isomer, unassigned)	100 to 1000 nM
COc1ccc(F)c(-c2ccc(COc3cccc(C(C)(C)CC(=O)O)c3)cc2C2=CCCC2(C)C)c1	100 to 1000 nM
CCCCOc1cc(COc2cccc([C@H](C)CC(=O)O)c2)ccc1-c1ccccc1OC (single isomer, unassigned)	> 10000 nM
CCc1cccc(-c2ccc(COc3cccc([C@@H](CC(=O)O)C4CC4)c3F)cc2[C@H]2CCCC2(C)C)c1 (single isomer, unassigned)	100 to 1000 nM
COc1cccc(-c2ccc(COc3cccc(C(CC(=O)O)CC4CC4)c3)cc2C2CCCC2(C)C)c1 (single isomer, unassigned) [Example 69.9]	100 to 1000 nM

Prompt line: Supply recorded EC50 for COc1cccc(-c2ccc(COc3cccc([C@@H](CC(=O)O)C4CC4)c3)cc2C(C)(C)C)c1 (single isomer, unassigned) here.
Response line: 100 to 1000 nM

----------
molecular target: UniProt O14842; assay: Inositol phosphate accumulation assay (A9_GPR40 cells); format: cell-based; parameters: expressed in transfected cells; host or cells: CHO cells stably transfected with GPR40 and aequorin; settings: inositol phosphate assay, A9_GPR40 cells, 1 hour; read-out: IP3 EC50
pEC50: −log10 of the molar value.
# pEC50 annotations

Molecule	Assay system	pEC50
COc1ccc(F)c(-c2ccc(COc3cccc(C(CC(=O)O)CC4CC4)c3)cc2CC(C)C)c1 (single isomer, unassigned)	UniProt O14842	7.00 to 8.00
COc1ccc(F)c(-c2ccc(COc3cccc(C(CC(=O)O)C4CC4)c3)cc2CN2C(C)CCCC2C)c1 (single isomer, unassigned)	UniProt O14842	7.00 to 8.00

Prompt line: Supply recorded pEC50 for CC1(C)CCC=C1c1cc(COc2cccc([C@@H](CC(=O)O)C3CC3)c2)ccc1-c1cc(C(F)F)ccc1F (single isomer, unassigned) here.
Response line: 6.00 to 7.00

----------
Target: GPR40 (Homo sapiens, UniProt O14842)
Experiment: Inositol phosphate accumulation assay (A9_GPR40 cells)
Assay type: cell-based
Design: expressed in transfected cells; host or cells: CHO cells stably transfected with GPR40 and aequorin
Conditions: inositol phosphate assay, A9_GPR40 cells, 1 hour; read-out: IP3 EC50
Experimental: Briefly, the Aequorin assays were performed on doubly stable CHO cells expressing GPR40 and Aequorin DNA. […] The luminescence was recorded over a period of 20 seconds with a Microlumat luminometer (Berthold). […] The inositol phosphate assay was performed on an A9 cell line stably transfected with GPR40 (A9_GPR40). The cells were incubated with different concentrations of compounds and [^3H] inositol accumulation was measured after 1 hour. […]
Attribute measured: EC50

Molecule	EC50
COc1ccc(F)c(-c2ccc(COc3cc(F)cc(C(CC(=O)O)CC4CC4)c3)cc2C2=CCCC2(C)C)c1 (single isomer, unassigned)	10 to 100 nM
COc1ccc(F)c(-c2ccc(COc3cc(F)cc(C(CC(=O)O)CC4CC4)c3)cc2C2CCCC2(C)C)c1 (single isomer, unassigned)	< 10 nM
COc1ccc(F)c(-c2c(F)cc(COc3cccc([C@@H](CC(=O)O)C4CC4)c3F)cc2[C@@H]2CCCC2(C)C)c1 (single isomer, unassigned)	10 to 100 nM
CCCCOc1cc(COc2cccc([C@@H](CC(=O)O)C3CC3)c2)ccc1-c1cc(OC)ccc1F (single isomer, unassigned)	100 to 1000 nM
COc1cccc(-c2ccc(COc3cccc(C(CC(=O)O)C4CC4)c3)cc2C2CCCC2(C)C)c1 (stereo not drawn)	< 10 nM
COc1cccc(-c2ccc(COc3cccc(C(CC(=O)O)C4CC4)c3)cc2C2=CCCC2(C)C)c1 (single isomer, unassigned)	< 10 nM
COc1ccc(F)c(-c2ccc(COc3cccc([C@H](CC(=O)O)C4CC4)c3)cc2[C@@H]2CCCC2(C)C)c1 (single isomer, unassigned)	10 to 100 nM
COc1ccc(F)c(-c2ccc(COc3cccc(C(CC(=O)O)C4CCC4)c3)cc2C2=CCCC2(C)C)c1 (single isomer, unassigned)	10 to 100 nM

Prompt line: Supply recorded EC50 for COc1ccc(F)c(-c2ccc(COc3cccc(C(C)CC(=O)O)c3)cc2C2(C)CC2)c1 (single isomer, unassigned) here.
Response line: 100 to 1000 nM

Prompt line: Supply recorded EC50 for COc1ccc(F)c(-c2ccc(COc3cccc([C@@H](CC(=O)O)CC4CC4)c3)cc2CC(C)(C)C)c1 (single isomer, unassigned) here.
Response line: 10 to 100 nM

Prompt line: Supply recorded EC50 for CCCCOc1cc(COc2cccc([C@H](CCC)CC(=O)O)c2)ccc1-c1cc(OC)ccc1F (single isomer, unassigned) here.
Response line: 100 to 1000 nM

Prompt line: Supply recorded EC50 for COc1ccc(F)c(-c2ccc(COc3cccc(C(C)CC(=O)O)c3)cc2CCC(C)(C)C)c1 (single isomer, unassigned) here.
Response line: 10 to 100 nM

----------
molecular target: GPR40 (Homo sapiens, UniProt O14842); experiment: Inositol phosphate accumulation assay (A9_GPR40 cells); format: cell-based; parameters: expressed in transfected cells; host or cells: CHO cells stably transfected with GPR40 and aequorin; conditions: inositol phosphate assay, A9_GPR40 cells, 1 hour; read-out: IP3 EC50
pEC50: −log10 of the molar value.
Attribute measured: pEC50

Solved cases (4 shown):
Compound	Assay system	pEC50
CCCC(CC(=O)O)c1cccc(OCc2ccc(-c3cc(OC)ccc3F)c(C3CCCCC3)c2)c1 (single isomer, unassigned) [Example 67.8]	GPR40 (Homo sapiens, UniProt O14842)	7.00 to 8.00
CCC(CC(=O)O)c1cc(F)cc(OCc2ccc(-c3cc(OC)ccc3F)c(C3=CCCC3(C)C)c2)c1F (single isomer, unassigned) [Example 90.1]	GPR40 (Homo sapiens, UniProt O14842)	7.00 to 8.00
COc1ccc(F)c(-c2ccc(COc3cc(CCC(=O)O)ccn3)cc2C(C)(C)C)c1 [Example 72]	GPR40 (Homo sapiens, UniProt O14842)	5.00 to 6.00
COc1cc(-c2ccc(COc3cccc([C@@H](CC(=O)O)C4CC4)c3F)cc2[C@@H](OC)C(C)(C)C)c(F)cn1 (single isomer, unassigned) [Example 83.21]	GPR40 (Homo sapiens, UniProt O14842)	> 8.00

Prompt line: Supply recorded pEC50 for CC1(C)CCC[C@@H]1c1cc(COc2cccc([C@@H](CC(=O)O)C3CC3)c2)ccc1-c1cc(C(F)F)ccc1F (single isomer, unassigned) [Example 66.51] here.
Response line: 7.00 to 8.00

Prompt line: Supply recorded pEC50 for COc1cc(-c2ccc(COc3cccc([C@@H](CC(=O)O)C4CC4)c3F)cc2[C@H]2CCCC2(C)C)c(F)cn1 (single isomer, unassigned) [Example 83.4] here.
Response line: > 8.00

----------
target: GPR40 (Homo sapiens); assay: Cell-based aequorin assay (CHO cells stably expressing GPR40 and aequorin); set-up: expressed in transfected cells; host or cells: CHO cells stably transfected with GPR40 and aequorin; conditions: activation of human GPR40, CHO cells, 0.01% HSA
# EC50 annotations

Compound	Assay system	Observed value
COc1ccc(F)c(-c2ccc(COc3cccc([C@@H](CC(=O)O)CC4CC4)c3)cc2C(C)C(C)C)c1 (single isomer, unassigned)	GPR40 (Homo sapiens)	100 to 1000 nM
CO[C@H](c1cc(COc2cccc([C@@H](CC(=O)O)C3CC3)c2F)ccc1-c1cc(F)ccc1F)C(C)(C)C (single isomer, unassigned)	GPR40 (Homo sapiens)	100 to 1000 nM
CCCC(CC(=O)O)c1cccc(OCc2ccc(-c3cccc(OC)c3)c(C3=CCCC3(C)C)c2)c1 (single isomer, unassigned)	GPR40 (Homo sapiens)	100 to 1000 nM
COc1ccc(F)c(-c2ccc(COc3cccc(CC(C)C(=O)O)c3)cc2C2CCCC2(C)C)c1 (single isomer, unassigned) [Example 62.2]	GPR40 (Homo sapiens)	100 to 1000 nM
COc1ccc(F)c(-c2ccc(COc3cccc(C(CC(=O)O)CC4CC4)c3F)cc2C(OC)C(C)(C)C)c1 (single isomer, unassigned)	GPR40 (Homo sapiens)	100 to 1000 nM

Prompt line: Supply recorded EC50 for COc1ccc(F)c(-c2ccc(COc3cccc([C@H](C)CC(=O)O)c3)cc2OC(F)(F)F)c1 (single isomer, unassigned) here.
Response line: 100 to 1000 nM

Prompt line: Supply recorded EC50 for C=C[C@H](CC(=O)O)c1cccc(OCc2ccc(-c3cc(OC)ccc3F)c(OCCCC)c2)c1 (single isomer, unassigned) here.
Response line: 1000 to 10000 nM

Prompt line: Supply recorded EC50 for CCCC(CC(=O)O)c1cccc(OCc2ccc(-c3cc(OC)ccc3F)c(C(C)(C)C)c2F)c1 (single isomer, unassigned) here.
Response line: 100 to 1000 nM

Prompt line: Supply recorded EC50 for CCOc1ccc(F)c(-c2ccc(COc3cccc([C@@H](CC(=O)O)C4CC4)c3)cc2[C@@H]2CCCC2(C)C)c1 (single isomer, unassigned) here.
Response line: 1000 to 10000 nM

Prompt line: Supply recorded EC50 for COc1cc(-c2ccc(COc3cccc([C@@H](CC(=O)O)C4CC4)c3F)cc2[C@H]2CCCC2(C)C)c(F)cn1 (single isomer, unassigned) here.
Response line: 10 to 100 nM

Prompt line: Supply recorded EC50 for COc1ccc(F)c(-c2ccc(COc3cccc(C(CC(=O)O)CC4CC4)c3)cc2C2CCCC2(C)C)c1 (single isomer, unassigned) here.
Response line: 100 to 1000 nM

Prompt line: Supply recorded EC50 for COc1ccc(F)c(-c2ccc(COc3cccc([C@@H](CC(=O)O)C4CC4)c3)cc2CC(C)(C)C)c1 (single isomer, unassigned) here.
Response line: 10 to 100 nM
